target: T1, purified human CD117 ectodomain (R&D Systems #332-SR) (human, UniProt P10721 26-524); test: BLI, purified IgG on sensor, soluble ectodomain; apparent monovalent
T1 construct: extracellular domain; Bought protein; also called c-kit; purified recombinant human CD117 ectodomain
T1 sequence (P10721 26-524): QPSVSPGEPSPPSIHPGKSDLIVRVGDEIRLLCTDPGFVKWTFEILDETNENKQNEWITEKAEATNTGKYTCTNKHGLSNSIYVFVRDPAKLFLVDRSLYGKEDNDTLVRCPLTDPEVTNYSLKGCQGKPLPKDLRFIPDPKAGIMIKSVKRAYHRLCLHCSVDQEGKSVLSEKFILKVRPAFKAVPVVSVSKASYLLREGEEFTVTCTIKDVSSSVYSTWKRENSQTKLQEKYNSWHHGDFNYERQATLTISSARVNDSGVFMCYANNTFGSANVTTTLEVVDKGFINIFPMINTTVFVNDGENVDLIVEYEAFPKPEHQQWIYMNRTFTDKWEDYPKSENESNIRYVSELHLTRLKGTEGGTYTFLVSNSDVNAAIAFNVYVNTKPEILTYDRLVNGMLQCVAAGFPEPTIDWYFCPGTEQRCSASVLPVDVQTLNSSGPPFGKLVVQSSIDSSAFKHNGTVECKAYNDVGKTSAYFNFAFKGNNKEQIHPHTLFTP
VALUE_TYPE: koff (s⁻¹)

INSERT INTO results (binder, reported) VALUES
  ('HC-14/LC-14 (Ab14) (antibody, IgG1, V domains shown, Purified IgG; also called 014) VH: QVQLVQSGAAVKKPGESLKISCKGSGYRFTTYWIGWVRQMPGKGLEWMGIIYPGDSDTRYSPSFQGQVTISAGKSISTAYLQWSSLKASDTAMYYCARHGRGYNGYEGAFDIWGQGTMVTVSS VL: DIQLTQSPSSLSASVGDRVTITCRASQGISSFLAWYQQKPGKAPKLLIYDASTLQSGVPSRFSGSASGTDFTLTISSLQPEDFATYYCQQLNGYPLTFGGGTKVEIK', 0.000577),
  ('HC-27/LC-27 (Ab27) (antibody, IgG1, V domains shown, From rat immunization/hybridoma; purified IgG in BLI; also called 027) VH: EVQLVESGGGLVQPGRSMKLSCKASGFTFSNYDMAWVRQAPTRGLEWVASISYDGITAYYRDSVKGRFTISRENAKSTLYLQLVSLRSEDTATYYCTTEGGYVYSGPHYFDYWGQGVMVTVSS VL: DIQMTQSPSSMSVSLGDTVTITCRASQDVGIFVNWFQQKPGRSPRRMIYRATNLADGVPSRFSGSRSGSDYSLTISSLESEDVADYHCLQYDEFPRTFGGGTKLELK', 0.000378),
  ('HC-18/LC-18 (Ab18) (antibody, IgG1, V domains shown, From rat immunization/hybridoma; purified IgG in BLI; also called 018) VH: EVQLQQYGAELGKPGTSVRLSCKVSGYNIRNTYIHWVNQRPGEGLEWIGRIDPTNGNTISAEKFKTKATLTADTSSHTAYLQFSQLKSDDTAIYFCALNYEGYADYWGQGVMVTGSS VL: DIQMTQSPSFLSASVGDRVTINCKASQNINKYLNWYQQKVGEAPKRLIFKTNSLQTGIPSRFSGSGSGTDYTLTISSLQTEDVATYFCFQYNIGYTFGAGTKVELK', 0.00491);
